Ref: patent US8278294B2

Target: human recombinant ROCK II (Homo sapiens)
Construct: recombinant human ROCK-II residues 11-552; His6 (N)
Sequence (O75116 11-552): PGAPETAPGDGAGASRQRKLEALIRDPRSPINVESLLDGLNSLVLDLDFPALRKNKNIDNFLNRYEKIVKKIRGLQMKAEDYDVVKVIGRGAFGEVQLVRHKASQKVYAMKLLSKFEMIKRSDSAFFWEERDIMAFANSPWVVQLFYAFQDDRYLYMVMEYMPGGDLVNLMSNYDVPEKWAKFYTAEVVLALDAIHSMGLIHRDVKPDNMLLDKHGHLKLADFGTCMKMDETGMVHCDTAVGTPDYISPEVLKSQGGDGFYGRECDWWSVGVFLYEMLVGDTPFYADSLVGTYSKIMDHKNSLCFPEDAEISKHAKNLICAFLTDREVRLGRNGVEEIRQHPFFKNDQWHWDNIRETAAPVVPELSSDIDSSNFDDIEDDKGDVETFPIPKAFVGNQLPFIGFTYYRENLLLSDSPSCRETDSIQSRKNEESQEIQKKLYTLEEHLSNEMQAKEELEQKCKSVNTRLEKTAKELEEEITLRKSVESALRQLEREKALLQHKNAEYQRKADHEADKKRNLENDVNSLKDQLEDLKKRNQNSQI
Assay: Determination of Rho kinase inhibition (Caliper peptide phosphorylation assay)
Conditions: negative decadal logarithm of the IC50; ROCK II residues 11-552, fluorescein peptide substrate, ATP, 60 min at 32° C.; salt or free base as obtained in the examples
Protocol: Determination of Rho Kinase Inhibition To measure Rho-kinase inhibition, IC50 values were determined according to the following protocol: […] Test compounds were diluted to the appropriate concentrations in buffer 1 (25 mM Tris-HCl, pH 7.4, 5 mM MgCl2, 2 mM DTT, 0.02% (w/v) BSA and 3% DMSO). […] Phosphorylation of the substrate peptide was then detected on a Caliper 3000 instrument essentially as described by Pommereau et al (J. Biomol. Screening 9(5), 409-416, 2004). […]
parameter: IC50

Answered examples (3):
Cc1cc2c(=O)[nH]ccc2cc1OC1CCCNCC1 (stereo not shown); ≤ 1000 nM
Cc1c[nH]c(=O)c2ccc(OC3CCN(C[C@@H](N)CO)CC3)c(F)c12; 1000 to 10000 nM
CN(C)CC(=O)N1CCC(Oc2cc3cc[nH]c(=O)c3cc2Cl)CC1; ≤ 1000 nM

Pending compound:
Under human recombinant ROCK II (Homo sapiens): IC50 value of CCCNC(=O)CN1CCC(Oc2cc3cc[nH]c(=O)c3cc2Cl)CC1 ?
≤ 1000 nM
